Data origin: PubChem BioAssay AID2060494

Tested on: 435261-313-R-J1-PDC complex spheroid viability;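 further: spheroids exposed to the agents for seven days before readout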
procedure.details: Anticancer human tumor 435261-313-R-J1-PDC patient-derived colon adenocarcinoma cell line growth inhibition [GQUAD]
condition.summary: second compound 3.16 µM; first compound 0.1 µM; hits give low values
Lab note: compare viability, T/C with 40%, writing TRUE if less and FALSE if equal or more.

{"columns": ["molecule", "qualitative.label"],
 "data": [
  ["CC1COCCN1c1cc(C2(S(C)(=N)=O)CC2)nc(-c2ccnc3[nH]ccc23)n1 (stereo not given) + Cc1[nH]c2ccc(F)cc2c1-c1nc2c3cccnc3c3ncccc3c2[nH]1", "TRUE"],
  ["CC(C)n1c(=O)n(C)c2cnc3cc(F)c(-c4ccc(OCCCN5CCCCC5)nc4)cc3c21 + Cc1cnc(CNC(=O)c2c(=O)c3ccc(N4CCCN(C)CC4)nc3n3c2sc2ccccc23)cn1", "TRUE"]
]}

Req: Here's an entry: C=CCn1c(=O)c2cnc(Nc3ccc(N4CCN(C)CC4)cc3)nc2n1-c1cccc(C(C)(C)O)n1 + Cc1cnc(CNC(=O)c2c(=O)c3ccc(N4CCCN(C)CC4)nc3n3c2sc2ccccc23)cn1 . Is its viability, T/C below 40%?
Resp: TRUE

Req: Here's an entry: COc1ncnc(C2CC2)c1-c1ncc2cnn(Cc3ccc(-c4nc(C(F)(F)F)cn4C(C)C)cc3)c2n1 + CN(C)c1ccc(Nc2c3ccc(NC(=O)CCN4CCCC4)cc3nc3cc(NC(=O)CCN4CCCC4)ccc23)cc1 . Is its viability, T/C below 40%?
Resp: FALSE

Req: Here's an entry: O=c1[nH]cc(F)c(=O)[nH]1 + CN(C)c1ccc(Nc2c3ccc(NC(=O)CCN4CCCC4)cc3nc3cc(NC(=O)CCN4CCCC4)ccc23)cc1 . Is its viability, T/C below 40%?
Resp: FALSE
